test system: Escherichia coli; test: Antimicrobial activity against mreB-deficient Escherichia coli YLS-3 expressing beta-lactamase TEM-1 by liquid microdilution method; type: functional
Kindly state MIC for each of the entries shown.
One number for each entry, in µg/mL.

Sample answers from the record:
given_smiles=CCN1CCN(C(=O)N[C@@H](C(=O)N[C@@H]2C(=O)N3[C@@H]2SC(C)(C)[C@@H]3C(=O)O)c2ccccc2)C(=O)C1=O readout_label=MIC units_text=µg/mL meas_value=32
given_smiles=CC1(C)S[C@@H]2[C@H](NC(=O)[C@H](N)c3ccc(O)cc3)C(=O)N2[C@H]1C(=O)O readout_label=MIC units_text=µg/mL meas_value=256

// next entry
Give its MIC value. Item: `CC(=O)OCC1=C(C(=O)O)N2C(=O)[C@@H](NC(=O)Cc3cccs3)[C@H]2SC1`
8
